FYI, the data here is from patent US20070178095A1.

Target: T1, peptide immunogen ANYCSGESEFVFLQKYPHTHLVHQA (human)
T1 construct: For immunization it was conjugated to KLH and a helper T-cell peptide; also called immunogenic peptide; immunogenic polypeptide
T1 peptide: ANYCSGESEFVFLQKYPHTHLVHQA
Experiment: ELISA, peptide coated at 2 ug/ml, Fab 0.016-10 ug/ml
METRIC: binding result

{"BINDER": "Fab 14 (Fab, V domains shown, Mouse Fab, kappa light chain; also called anti-myostatin Fab 14) VH: QVTLKESGPGILQSSQTLSLTCSLSGFSLRTSGMSVSWIRQSSGKGLEWLAHIYWDDDKRYNPSLRNRLTISKDTLRNQVFLKITSVGTADTATYYCARRAITTVIGGGTMDYWGQGTSVTVSS VL: QIVLTQSPAIMSASPGEKVTMTCSASSSVSYMHWYQQKPGTSPKRWIYDTSKLASGVPARFSGSGSGTSYSLTISSMEAEDAATYYCQQWYSNPLTFGAGTKLELKR", "METRIC": "binding result", "OBSERVED_RESULT": "binds"}
{"BINDER": "Fab 12 (Fab, V domains shown, Mouse Fab, kappa light chain; also called anti-myostatin Fab 12) VH: QVTLKESGPGMLQSSQTLSLTCSLSGFSLRTSGMSVSWIRQSSGKGLEWLAHIYWDDDKRYNPSLRNRLTISKDTLRNQVFLKITSVGTADTATYYCARRAITTVIGGGTMDYWGQGTSVTVSS VL: QVVLTQSPAIMSASPGEKVTMTCSASSSVYYMHWYQQRSGASPKRWIYDTSKLASGVPARFSGSGSGTSYSLTISSMEAEDAATYYCQQWTYNPLTFGAGTKLELKR", "METRIC": "binding result", "OBSERVED_RESULT": "binds"}
